System: EBNA-1 (Epstein-Barr virus nuclear antigen 1), Human herpesvirus 4
Measurement description: EBNA-1 DNA-binding inhibitors, primary screen, biochemical, fluorescence polarization (AID 1950)
Experimental context: at 14.8 µM
About 1,000 (0.33%) of roughly 300,000 compounds were called active. Cut-off read from the data, not from the text of the source: active = inhibition above about 28%; inactive = the rest. Many of the other results were omitted from the sample, so actives are more common in it than they were.
The reply should be one of these categories: yes = active, no = inactive

Query: State the result this test recorded for Cc1cc2nc3n(c2cc1C)CC1CC(C(=O)NCCC(C)C)N(C)C31 (stereo unspecified) .
Response: no

Query: Each compound tested received a call. Report the one for "COc1ccc(CCNC(=S)N2CCN(S(=O)(=O)c3ccc(F)cc3)CC2)cc1" .
Response: yes

Query: // outcome(item) with item = CCC1CCCCN1C(=O)CSc1nc2c(c(=O)n1C)SC(C)C2 (stereo unspecified)
Response: no

Query: Returns: the outcome recorded for Cc1ccc(S(=O)(=O)N(CC(O)CN2C(=O)NC(C)(C)C2=O)c2cccc([N+](=O)[O-])c2)cc1 (stereo unspecified) in this assay.
Response: no

Query: Hi team, can someone confirm the assay call for CC(=O)N1CCCc2cc(S(=O)(=O)N3CCCC(C(=O)N4CCN(c5cccc(Cl)c5)CC4)C3)ccc21 (stereo unspecified) ?
Response: no

Query: Recorded call for COc1ccc(C(C(=O)NCc2ccccc2)N(Cc2cccs2)C(=O)c2cnccn2)cc1 (stereo unspecified) ?
Response: no

Query: Outcome logged for "O=C(Cn1c(NCCO)nc2ccccc21)c1ccc(Cl)cc1Cl" in this assay:
Response: no

Query: recorded result category for "Cc1ccc(O)c(-c2cc(C(=O)Nc3c(C)n(C)n(-c4ccccc4)c3=O)[nH]n2)c1" in this test
Response: no

Query: Please state the recorded outcome for this compound: "CCOc1cc(C2C(C(=O)OC)=CN(C3CCCC3)C=C2C(=O)OC)cc(Br)c1O"
Response: no

Query: Fill in: this test's call for "COC(=O)CSc1nc(C)c2ccc(OC)cc2n1" is ___
Response: yes

Query: Identify the outcome logged in this assay for the compound shown: "CC(=O)NNC(=O)c1csc(Cc2c(Cl)sc3ccc(Cl)cc23)n1"
Response: no

Query: Look up the recorded call for "Nc1nc(SCC(=O)Nc2ccc(Cl)cc2C(F)(F)F)n[nH]1" in this test.
Response: no

Query: For this compound, state the assay outcome: "CC(=O)c1cc(-c2ccccc2)[nH]c1N1CCCC1"
Response: no

Query: I'd appreciate the recorded outcome for "Cc1ccn2c(=O)nc(SCC(=O)NCc3ccc(F)cc3)nc2c1" from this test.
Response: no

Query: Which result was noted for this compound in the test: "COc1ccc2[nH]c3nc(SCC(=O)NC4CC4)nnc3c2c1"
Response: no

Query: Tell me the recorded outcome of this test for Cc1sc2c(c1C)c(=O)n(-c1ccccc1)c(=O)n2CC(=O)NCC1CCCO1 (stereo unspecified) .
Response: no

Query: What outcome does the record of this test show for "Cc1ccc(-c2nc(SCC(=O)Nc3ccccc3OC(F)F)c3c(C)c(C(=O)O)sc3n2)cc1" ?
Response: yes

Query: Record request — test call for O=C(NC1CCCC1)C(c1ccccn1)N(C(=O)c1csnn1)C1CCCC1 (stereo unspecified)
Response: no

Query: Record lookup: outcome of this test for "CCOC(=O)c1ccc[n+](CC(=O)Nc2ccccc2OC(F)F)c1" ?
Response: no

Query: Recorded test call requested for "COc1ccc2nc(SCc3ccccc3)nc(C)c2c1"
Response: no

Query: Each compound tested received a call. Report the one for "Cc1ccc(NC(=O)c2cc(-c3ccccc3O)n[nH]2)cc1C" .
Response: no

Entry source: PubChem BioAssay AID1950
